- test_description: recombinant UMI read abundance after kanamycin selection (control-corrected) (log10(CPM+1)); higher = more efficient recombination; extreme values may be limits of the assay; sequences stand for … in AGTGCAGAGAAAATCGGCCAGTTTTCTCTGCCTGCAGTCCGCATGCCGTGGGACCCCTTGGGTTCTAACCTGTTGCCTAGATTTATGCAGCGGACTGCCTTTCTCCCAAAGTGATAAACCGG…AGGTTGGTTTCACT; site = the 11-nt donor
Overview of recorded recombinant UMI read abundance (log10) for various sequences
// no unit, no text: just the number

>>> measurement("GTGCATGCATGGACCGGTTTTCCCGGTAATCCGTATTTGGA (site GTGCATGCTTC)")
1.28
>>> measurement("GATTTGGCATGGACCGGTTTTCCCGGTAATCCGTATTTGTG (site CATTTGGCTCA)")
0.309
>>> measurement("ATTTCCACATGGACCGGTTTTCCCGGTAATCCGTATTTGTC (site ATTTCCACTGA)")
0.636
>>> measurement("CAAGCATCATGGACCGGTTTTCCCGGTAATCCGTATTTGCT (site CAAGCAGCTAG)")
0
>>> measurement("CAAGTCACATGGACCGGTTTTCCCGGTAATCCGTATTTGAG (site CAAGTCACTCA)")
1.48
>>> measurement("TAATGCGCATGGACCGGTTTTCCCGGTAATCCGTATTTGGG (site TAATGGGCTCC)")
0.0249
>>> measurement("GATTATACATGGACCGGTTTTCCCGGTAATCCGTATTTGCT (site GATTATGCTAG)")
0
>>> measurement("TCACCCGCATGGACCGGTTTTCCCGGTAATCCGTATTTGGT (site TCACCCGCTAC)")
0.206

Query: Complete the entry with recombinant UMI read abundance (log10) for AACTCAGCATGGACCGGTTTTCCCGGTAATCCGTATTTGGG (site ACCTCAGCTCC)
Result: 0.0111

Query: Tell me its recombinant UMI read abundance (log10) given CACTACACATGGACCGGTTTTCCCGGTAATCCGTATTTGCT (site CTCTACACTAG) as the entry.
Result: 1.79

Query: Specify measured recombinant UMI read abundance (log10) for CTGTAAACATGGACCGGTTTTCCCGGTAATCCGTATTTGCA (site CTGTAAACTTG) .
Result: 1.29

Query: Determine from records and report recombinant UMI read abundance (log10) for TATTTGGCATGGACCGGTTTTCCCGGTAATCCGTATTTGTC (site TATTTGGCTGA)
Result: 0

Query: Name the recorded recombinant UMI read abundance (log10) of the sequence listed here: CAAGCGCCATGGACCGGTTTTCCCGGTAATCCGTATTTGTT (site CAAGCGCCTTA)
Result: 0.663

Query: Identify recombinant UMI read abundance (log10) associated with the sequence GGCAATCCATGGACCGGTTTTCCCGGTAATCCGTATTTGAT (site GGCAATCCTCT)
Result: 0.0105

Query: // fetch recombinant UMI read abundance (log10) given entry TCACGCACATGGACCGGTTTTCCCGGTAATCCGTATTTGAC (site TCACGCACTGT)
Result: 0.943

Query: Output measured recombinant UMI read abundance (log10) for this item: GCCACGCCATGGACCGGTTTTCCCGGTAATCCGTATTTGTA (site GCCACGGCTTA)
Result: 0.0146

Query: Return recombinant UMI read abundance (log10) (reported value) for this sequence: CCAAGCACATGGACCGGTTTTCCCGGTAATCCGTATTTGCT (site CCAAGCACTAG)
Result: 0.32

Query: Entry TGGGAACCATGGACCGGTTTTCCCGGTAATCCGTATTTGAT (site CGGGAACCTAT) needs its recombinant UMI read abundance (log10) filled in; supply it.
Result: 0.00502

Query: Give the reported recombinant UMI read abundance (log10) for this sequence. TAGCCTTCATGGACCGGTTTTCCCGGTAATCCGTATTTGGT (site TTGCCTTCTAC)
Result: 0.0116

----------
sequences and their reported recombinant barcode read abundance (log10)
- test_description: recombinant barcode read abundance after kanamycin selection (control-corrected) (log10(CPM+1)); higher = more efficient recombination; sequences stand for … in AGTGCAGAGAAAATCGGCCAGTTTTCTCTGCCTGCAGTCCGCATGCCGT…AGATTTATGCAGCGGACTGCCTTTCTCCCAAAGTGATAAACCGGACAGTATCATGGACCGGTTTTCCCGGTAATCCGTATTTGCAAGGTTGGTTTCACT; site = the 11-nt target
Simply state the number, no unit and no words.

Look over these answered cases.
>>> measurement("TAGAACTCTTGGGTTCTAACCTGTTGCCG (site TAGAACTCTTG)")
0.127
>>> measurement("CCTTGCACTTGGGTTCTAACCTGTTGCGA (site CCTTGCACTTC)")
0.409
>>> measurement("CTAGACTCTTGGGTTCTAACCTGTTGCAC (site CTAGACTCTTT)")
0.11
>>> measurement("CTGCGTACTTGGGTTCTAACCTGTTGCCG (site TCCAAGGCTTA)")
0.0663
>>> measurement("ATACGGACTTGGGTTCTAACCTGTTGCTA (site ATACGGACTTA)")
2.04

Query: Identify measured recombinant barcode read abundance (log10) associated with CGACGTCCTTGGGTTCTAACCTGTTGCGG (site TGAAGTCCTCC)
Result: 0.00826

Query: Indicate the recorded recombinant barcode read abundance (log10) value for this sequence: TAGCTCCCTTGGGTTCTAACCTGTTGCCA (site TAGCTCCCTAG)
Result: 0.676

Query: Hello, please tell me recorded recombinant barcode read abundance (log10) for this one: GGTCCTGCTTGGGTTCTAACCTGTTGCCT (site AGTCCTGCTAG)
Result: 0.366

Query: Query recombinant barcode read abundance (log10) for GTAAACACTTGGGTTCTAACCTGTTGCAG (site GTAAACACTCT)
Result: 0.514

----------
The following sequences are shown together with reported recombinant UMI read abundance (log10) values.
- test_description: recombinant UMI read abundance after kanamycin selection (control-corrected) (log10(CPM+1)); higher = more efficient recombination; extreme values may be limits of the assay; sequences stand for … in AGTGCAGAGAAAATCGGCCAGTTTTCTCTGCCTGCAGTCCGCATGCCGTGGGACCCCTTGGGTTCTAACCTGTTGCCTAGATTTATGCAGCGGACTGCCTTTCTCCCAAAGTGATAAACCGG…AGGTTGGTTTCACT; site = the 11-nt donor
Reply: number alone, nothing else.

>>> measurement("TTGTAGGCATGGACCGGTTTTCCCGGTAATCCGTATTTGGC (site CTGTAGGCTGC)")
1.59
>>> measurement("TAGTATACATGGACCGGTTTTCCCGGTAATCCGTATTTGCA (site TAGGATACTTG)")
0.222
>>> measurement("CCCGGTCCATGGACCGGTTTTCCCGGTAATCCGTATTTGCC (site CCCGGTCCTTG)")
0.00573
>>> measurement("GTAGCTCCATGGACCGGTTTTCCCGGTAATCCGTATTTGAA (site GTAGCTCCTTT)")
1
>>> measurement("GGTGTAGCATGGACCGGTTTTCCCGGTAATCCGTATTTGGT (site GGTGTAGCTAC)")
0.0948

Now, please, on to the next sequence.
Query: Supply measured recombinant UMI read abundance (log10) of GGTATTTCATGGACCGGTTTTCCCGGTAATCCGTATTTGCC (site GGTATTTCTGG) in your reply.
Result: 0

----------
- test_description: recombinant barcode read abundance after kanamycin selection (control-corrected) (log10(CPM+1)); higher = more efficient recombination; sequences stand for … in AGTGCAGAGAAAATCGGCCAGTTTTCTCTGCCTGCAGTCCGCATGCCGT…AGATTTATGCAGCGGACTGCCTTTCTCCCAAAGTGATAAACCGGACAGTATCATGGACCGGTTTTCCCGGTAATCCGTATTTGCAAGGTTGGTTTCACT; site = the 11-nt target
// recombinant barcode read abundance (log10) lookup, one value per entry
Number only, please.

>>> measurement("AGAGAGACTTGGGTTCTAACCTGTTGCAC (site TGATAGACTGT)")
0.169

Query: Supply reported recombinant barcode read abundance (log10) belonging to this sequence: TAGGGCACTTGGGTTCTAACCTGTTGCCG (site TAGGGCACTCA)
Result: 0.119

Query: Dear colleague, please send me the reported recombinant barcode read abundance (log10) for CATGCTCCTTGGGTTCTAACCTGTTGCCT (site CATGCTCCTAG) when you can.
Result: 0.353

Query: Report recombinant barcode read abundance (log10), nothing else, for this sequence: AGCTCCTCTTGGGTTCTAACCTGTTGCCT (site AGCTCCTCTAG)
Result: 0.0883

Query: For the sequence ACATAGTCTTGGGTTCTAACCTGTTGCCT (site AGATACTCTAG) , give its measured recombinant barcode read abundance (log10) value.
Result: 0.0816

Query: Give reported recombinant barcode read abundance (log10) value for AACTTGACTTGGGTTCTAACCTGTTGCCT (site AAGTTGACTAG)
Result: 0.0706

Query: Complete the entry with recombinant barcode read abundance (log10) for TAGACTACTTGGGTTCTAACCTGTTGCTC (site TAGACTACTTA)
Result: 0.0392
